melting point values by entry
Give your result in °C as a bare value.

Nc1cccc2c1C1CC3(CCN1C2=O)OCCO3 (stereo not given)    76

// next item, melting point requested
Inquiry: Recorded melting point for CC(C)(CO)NS(=O)(=O)c1cccc(NC(=O)c2cnn3c(C(F)F)cc(-c4ccc(C(F)(F)F)cc4)nc23)c1 , please?
Reply text: 232

----------
recorded-endpoint: melting point

Examples from the recorded data:
CCOC(=O)c1ncc(Cn2c(NC3CCN(C(=O)OCC)CC3)nc3ccccc32)o1    132 °C
COCCn1nc2c(N)nc3ccccc3c2c1CCCCNS(C)(=O)=O    159 to 161 °C
CCCCCN1C(=O)C(NC(=O)c2ccc(Cl)c(Cl)c2)c2ccccc21 (stereo not given)    125 to 126 °C
O=C(O)COc1ccc(-c2coc3cc(OCC(=O)O)ccc3c2=O)cc1    270 to 272 °C
CN(C)C(=O)C=Cc1ccc(SC2Cc3cc(O)ccc3C3CCC4(C)C(O)CCC4C23)cc1 (stereo not given)    152 to 155 °C

// next item, melting point requested
Inquiry: Recorded melting point for CC(CCC(=O)O)C1CCC2C3C(=O)CC4CC(OC=O)CCC4(C)C3CC(OC=O)C12C (stereo not given) , please?
Reply text: 208 to 211 °C

----------
melting point values by entry

Examples from the recorded data:
O=c1[nH]c(=O)c2cc(S(=O)(=O)O)ccc2[nH]1    > 300 °C
O=C(NCc1ncc(C(F)(F)F)cc1Cl)c1ccccc1C(F)(F)F    127 to 130 °C
COc1ccc(C2CCN(C(=O)/C=C/c3ccccc3)CC2)cc1OC1CCCC1    93 to 95 °C
CC(C)c1nc(-c2ccccc2)nc(-c2ccc(F)cc2)c1C=CI    119 to 122 °C
COC(=O)Nc1cc(C)on1    136 to 137 °C

Inquiry: Recorded melting point for C[C@@H]1CN(CC(=O)Nc2nc3ccccc3n2C)C[C@H](C)N1c1ncnc2sccc12 , please?
Reply text: 200 °C

Inquiry: Recorded melting point for COc1cc(OC)c2c(=O)[nH]c(-c3ccc(OCCNC(C)C)c(-c4ccc(S(C)(=O)=O)cc4C)n3)nc2c1 , please?
Reply text: 202 to 203 °C

Inquiry: Recorded melting point for C=CC(=O)OCCCCCCOc1ccc(-c2cccc(F)c2F)cc1 , please?
Reply text: 45.6 to 46.8 °C

Inquiry: Recorded melting point for O=[N+]([O-])c1ccc(OCc2cccc(F)c2)cc1 , please?
Reply text: 104 to 105 °C

Inquiry: Recorded melting point for Cc1c(Cc2cccc(C(=O)O)c2)n(S(=O)(=O)c2cccc(C(C)(C)C)c2)c2ccc(C(F)(F)F)cc12 , please?
Reply text: 194 °C

Inquiry: Recorded melting point for COc1cc(-c2csc(C(=N)NO)n2)cc(Cl)c1OC , please?
Reply text: 169 to 170 °C

Inquiry: Recorded melting point for COc1c(N2CC(OC)C(C)(N)C2)c(F)cc2c(=O)c(C(=O)O)cn([C@@H]3C[C@@H]3F)c12 (stereo partly specified) , please?
Reply text: 150 to 151 °C

Inquiry: Recorded melting point for CC(=O)n1ncc2c(OCC3CO3)cc(C)cc21 (stereo unspecified) , please?
Reply text: 105 to 107 °C

Inquiry: Recorded melting point for Cc1nc2c(-c3cccc(N4CCN(C)CC4)c3)cnn2c(N)c1-c1ccc(F)c(F)c1 , please?
Reply text: 216 to 219 °C

Inquiry: Recorded melting point for Cc1cncn1-c1cc(C#N)cc(C(F)(F)F)c1 , please?
Reply text: 99 to 101 °C
